test: Plasma concentration (pharmacokinetic) experiment of 177Lu-labelled compounds; settings: SD, rat, whole blood, iv, total radioactivity, AUClast, SD rat, tail vein, blood
Numbered stars: 1 amine (or outer) side, 2 acyl side, 3 side chain; on linkers, the order of the positions; unused ones are H or OH. Bridge positions count the residues as written; N and C are the ends. Square brackets hold non-standard residues; d marks the D form. Peptide text beside a SMILES is read from it. * marks the point of attachment. TBMB(SCH2CH2NH-DOTA) = O=C(O)CN1CCN(CC(=O)O)CCN(CC(=O)NCCSCc2cc(C[*:1])cc(C[*:2])c2)CCN(CC(=O)O)CC1; Phe(2-CF3) = N[C@@H](Cc1ccccc1C(F)(F)F)C(=O)O; Hyp = O=C(O)[C@@H]1C[C@@H](O)CN1; Hexanoyl = CCCCCC(=O)*; Aib = CC(C)(N)C(=O)O
Measured attribute: tissue uptake
// return just the number, without any unit appended

Prompt: Please indicate tissue uptake recorded for CCCCCC(=O)N[C@H]1CSCc2cc(CSCCNC(=O)CN3CCN(CC(=O)O)CCN(CC(=O)O)CCN(CC(=O)O)CC3)cc(c2)CSC[C@@H](C(=O)O)NC(=O)[C@H](Cc2ccccc2C(F)(F)F)NC(=O)[C@H](CCC(N)=O)NC(=O)[C@H]([C@@H](C)O)NC(=O)[C@@H]2C[C@@H](O)CN2C(=O)[C@@H]2CCCN2C(=O)C(C)(C)NC1=O [^177Lu-DOTA-09, metal not drawn] (Hexanoyl-C[Aib]P[Hyp]TQ[Phe(2-CF3)]C-OH; linker 1-8 via TBMB(SCH2CH2NH-DOTA))
Response: 5.04
